Assay: Inhibition ratio on CCK-A receptor with respect to CCK-B receptor
Can you tell me Ratio for the items I'm about to list?
Numbers only.

# Compound, Measured attribute, Numeric result
data = [
    ("C[C@](Cc1c[nH]c2ccccc12)(NC(=O)OC1C2CC3CC(C2)CC1C3)C(=O)NC[C@@H](NC(=O)CCP(C)(=O)O)c1ccccc1 (stereo partly specified)", "Ratio", 190),
]

Provide the reported Ratio of each entry below, same order.
1. C[C@](Cc1c[nH]c2ccccc12)(NC(=O)OC1C2CC3CC(C2)CC1C3)C(=O)NC[C@@H](NC(=O)CCSc1nc[nH]n1)c1ccccc1 (stereo partly specified)
2. C[C@@](Cc1c[nH]c2ccccc12)(NC(=O)OC1C2CC3CC(C2)CC1C3)C(=O)NC[C@@H](NC(=O)CCn1nn[nH]c1=S)c1ccccc1 (stereo partly specified)

Completion:
1: 53; 2: 260

Below is a list of compounds. For each, state its recorded Ratio.
1. C[C@](Cc1c[nH]c2ccccc12)(NC(=O)OC1C2CC3CC(C2)CC1C3)C(=O)NC[C@@H](NC(=O)CCC(=O)NC1N=NN=N1)c1ccccc1 (stereo partly specified)
2. C[C@](Cc1c[nH]c2ccccc12)(NC(=O)OC1C2CC3CC(C2)CC1C3)C(=O)NC[C@@H](NC(=O)CCNS(=O)(=O)C(F)(F)F)c1ccccc1 (stereo partly specified)
3. C[C@](Cc1c[nH]c2ccccc12)(NC(=O)OC1C2CC3CC(C2)CC1C3)C(=O)NC[C@@H](NC(=O)CCC(=O)NO)c1ccccc1 (stereo partly specified)

Completion:
200
9
93
